B1: FEM1A (parent)
chain: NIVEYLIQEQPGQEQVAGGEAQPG

Variants of: B1
procedureDetails: protein stability index of a GFP-peptide fusion (GPS, HEK-293T) (PSI 1-6); higher = more stable;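 also: lentivirally expressed fusions sorted by FACS into six bins by GFP to DsRed ratio, PSI derived from sequencing read proportions per bin multiplied by bin number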
particulars: c terminus: a fixed tail appended
Answer each item with its documented protein stability index.
Give a plain numeric answer without units written out.

Prompt: Look up and state reported protein stability index for A21T
Response: 4.67

Prompt: Look up and state reported protein stability index for Q15V
Response: 3.66

Prompt: Look up and state reported protein stability index for E14P
Response: 3.73

Prompt: Look up and state reported protein stability index for A21S
Response: 3.83

Prompt: Look up and state reported protein stability index for Y5K
Response: 5.31

Prompt: Look up and state reported protein stability index for Q8W
Response: 3.33

Prompt: Look up and state reported protein stability index for E4P
Response: 4.76

Prompt: Look up and state reported protein stability index for P23G
Response: 4.19

Prompt: Look up and state reported protein stability index for G12H
Response: 4.24

Prompt: Look up and state reported protein stability index for Q22F
Response: 3.24

Prompt: Look up and state reported protein stability index for Q22R
Response: 3.94

Prompt: Look up and state reported protein stability index for P23L
Response: 4.24

Prompt: Look up and state reported protein stability index for Q15G
Response: 4.78

Prompt: Look up and state reported protein stability index for V3L
Response: 3.07

Prompt: Look up and state reported protein stability index for N1H
Response: 3.76

Prompt: Look up and state reported protein stability index for N1F
Response: 2.54

Prompt: Look up and state reported protein stability index for I7R
Response: 4.92

Prompt: Look up and state reported protein stability index for P23M
Response: 4.33

Prompt: Look up and state reported protein stability index for A21I
Response: 3.91

Prompt: Look up and state reported protein stability index for L6M
Response: 4.5

Prompt: Look up and state reported protein stability index for A17H
Response: 4.38

Prompt: Look up and state reported protein stability index for A21E
Response: 4.76

Prompt: Look up and state reported protein stability index for Q13H
Response: 4.04

Prompt: Look up and state reported protein stability index for I2H
Response: 5.49

Prompt: Look up and state reported protein stability index for P11S
Response: 3.96

Prompt: Look up and state reported protein stability index for Q8F
Response: 2.94

Prompt: Look up and state reported protein stability index for L6R
Response: 5.16

Prompt: Look up and state reported protein stability index for G24K
Response: 3.94

Prompt: Look up and state reported protein stability index for I2C
Response: 5.17

Prompt: Look up and state reported protein stability index for E4L
Response: 1.92

Prompt: Look up and state reported protein stability index for Q22S
Response: 4.53

Prompt: Look up and state reported protein stability index for E9Y
Response: 2.42

Prompt: Look up and state reported protein stability index for I2G
Response: 5.39

Prompt: Look up and state reported protein stability index for V3M
Response: 4.2

Prompt: Look up and state reported protein stability index for V3S
Response: 5.49

Prompt: Look up and state reported protein stability index for L6N
Response: 5.71

Prompt: Look up and state reported protein stability index for G12F
Response: 3.09

Prompt: Look up and state reported protein stability index for E20H
Response: 4.1

Prompt: Look up and state reported protein stability index for G12A
Response: 3.83

Prompt: Look up and state reported protein stability index for E14G
Response: 3.84

Prompt: Look up and state reported protein stability index for G19H
Response: 4.04

Prompt: Look up and state reported protein stability index for Q10A
Response: 4.34

Prompt: Look up and state reported protein stability index for I2K
Response: 5.27

Prompt: Look up and state reported protein stability index for I7W
Response: 3.95

Prompt: Look up and state reported protein stability index for L6E
Response: 5.82

Prompt: Look up and state reported protein stability index for G12M
Response: 4.03

Prompt: Look up and state reported protein stability index for G24I
Response: 4.03

Prompt: Look up and state reported protein stability index for E9P
Response: 3.71

Prompt: Look up and state reported protein stability index for A17C
Response: 3.37

Prompt: Look up and state reported protein stability index for G19R
Response: 3.66

Prompt: Look up and state reported protein stability index for G19I
Response: 3.23

Prompt: Look up and state reported protein stability index for I7C
Response: 4.78

Prompt: Look up and state reported protein stability index for G24T
Response: 4.17

Prompt: Look up and state reported protein stability index for Q15K
Response: 3.91

Prompt: Look up and state reported protein stability index for Y5F
Response: 3.56

Prompt: Look up and state reported protein stability index for V16P
Response: 4.29

Prompt: Look up and state reported protein stability index for Q13W
Response: 3.18

Prompt: Look up and state reported protein stability index for V16R
Response: 4.2

Prompt: Look up and state reported protein stability index for V3I
Response: 3.91

Prompt: Look up and state reported protein stability index for G12L
Response: 3.44

Prompt: Look up and state reported protein stability index for E9S
Response: 3.36

Prompt: Look up and state reported protein stability index for Q22M
Response: 4.35

Prompt: Look up and state reported protein stability index for Q22E
Response: 4.82

Prompt: Look up and state reported protein stability index for Q10D
Response: 4.37

Prompt: Look up and state reported protein stability index for Q8L
Response: 4.39

Prompt: Look up and state reported protein stability index for G24C
Response: 4.17

Prompt: Look up and state reported protein stability index for V3K
Response: 5.05

Prompt: Look up and state reported protein stability index for Q22D
Response: 4.56

Prompt: Look up and state reported protein stability index for G24S
Response: 3.86

Prompt: Look up and state reported protein stability index for V3G
Response: 5.37

Prompt: Look up and state reported protein stability index for A21M
Response: 4.16
